GI50: recorded values
System: COLO 205
Assay info: NCI tumour cell line growth inhibition, 48 h
Activity calls are given as the source filed them. No stated cut-off is given here; in the data, active = GI50 up to about 1.1 µM and inactive = higher.

Ask: Please tell me: GI50 of CSc1cc(Cl)c(C)cc1S(=O)(=O)NC(=O)NNc1ccc(F)c(Cl)c1 , system COLO 205?
Reply: > 100 µM (inactive)

Ask: Please tell me: GI50 of C=C(C)C1CC2=C(O1)C(=O)c1cccc(O)c1C2=O (stereo unspecified) , system COLO 205?
Reply: 1.75 µM (inactive)

Ask: Please tell me: GI50 of CO/C=C(/C(=O)OC)c1ccccc1COc1cccc(C(F)(F)F)c1 , system COLO 205?
Reply: 6.61 µM (inactive)

New cases:
Ask: Please tell me: GI50 of COc1ccc(-n2c3c(c4cc(O)ccc42)Cc2ccccc2C3=O)cc1 , system COLO 205?
Reply: 11.7 µM (inactive)

Ask: Please tell me: GI50 of C[C@]12CCC(=O)C=C1CC[C@@H]1C2CC[C@]2(C)c3nn(-c4ccc(F)cc4)nc3CC12 (stereo partly specified) , system COLO 205?
Reply: > 100 µM (inactive)

Ask: Please tell me: GI50 of C=CCN1/C(=C(\C#N)c2nc3ccccc3[nH]2)Sc2c1nc[nH]c2=O , system COLO 205?
Reply: > 100 µM (inactive)

Ask: Please tell me: GI50 of O=C1CSc2nc3ccccc3n2/C=N\N1 , system COLO 205?
Reply: > 100 µM (inactive)

Ask: Please tell me: GI50 of Clc1cc(-c2ccccc2)nc2ccccc12 , system COLO 205?
Reply: 19.5 µM (inactive)

Ask: Please tell me: GI50 of CC(C)(C)CC(C)(C)NC(=S)NO , system COLO 205?
Reply: > 100 µM (inactive)

Ask: Please tell me: GI50 of CC1C(c2ccc3c(c2)OCO3)c2cc3c(cc2OC1N1CCOCC1)OCO3 (stereo unspecified) , system COLO 205?
Reply: 21.1 µM (inactive)

Ask: Please tell me: GI50 of O=C1C2CC=CCC2C(=O)N1n1c(-c2ccccc2)n[nH]c1=O (stereo unspecified) , system COLO 205?
Reply: > 100 µM (inactive)
